Assay: Quantification of 1,8-cineole metabolites in human milk (SAFE, GC-MS, internal standard and matrix calibration) after oral intake of 100 mg 1,8-cineole
Type: in vivo
Conditions: sample D-2 (odour yes); oral 100 mg 1,8-cineole; single determination; values given with (<x) are approximations
Measured Absolute concentration in human milk of individual entries

Record excerpt, results attached:
- Compound: "CC12C=CC(CC1)C(C)(C)O2 (stereo not shown) [2,3-dehydro-1,8-cineole, 2,3-Dehydro-1,8-cineole]"
  Absolute concentration in human milk: "5.13 µg/kg"
- Compound: "CC12CCC(C(=O)C1)C(C)(C)O2 (stereo not shown)"
  Absolute concentration in human milk: "2.12 µg/kg"
- Compound: "CC12CCC(CC1)C(C)(CO)O2 (stereo not shown) [9-hydroxy-1,8-cineole]"
  Absolute concentration in human milk: "0.46 µg/kg"
- Compound: "CC1(C)OC2(C)CCC1CC2O (stereo not drawn) [a2-hydroxy-1,8-cineole, α2-hydroxy-1,8-cineole]"
  Absolute concentration in human milk: "135.98 µg/kg"
- Compound: "CC12CCC(CC1=O)C(C)(C)O2 (stereo not shown)"
  Absolute concentration in human milk: "0.85 µg/kg"
- Compound: "CC12CCC(C(O)C1)C(C)(C)O2 (stereo not drawn) [a3-hydroxy-1,8-cineole, α3-Hydroxy-1,8-cineole]"
  Absolute concentration in human milk: "0.41 µg/kg"
- Compound: "CC1(C)OC2(C)CCC1CC2O (stereo not drawn) [b2-hydroxy-1,8-cineole, β2-hydroxy-1,8-cineole]"
  Absolute concentration in human milk: "7.35 µg/kg"
- Compound: "CC1(C)OC2(C)CCC1C1OC12 (stereo not shown)"
  Absolute concentration in human milk: "4.13 µg/kg"
- Compound: "CC1(C)OC2(CO)CCC1CC2 [7-hydroxy-1,8-cineole]"
  Absolute concentration in human milk: "0.62 µg/kg"

Would you kindly look at the next entry?
Task: Fill in the blank: the reported Absolute concentration in human milk of CC12CCC(O)(CC1)C(C)(C)O2 [4-hydroxy-1,8-cineole] is ____.
Output: 7.13 µg/kg

* * *

Measured Absolute concentration in human milk of individual entries
Assay: Quantification of 1,8-cineole metabolites in human milk (SAFE, GC-MS, internal standard and matrix calibration) after oral intake of 100 mg 1,8-cineole
Assay type: in vivo
Details: sample B-1 (odour yes); oral 100 mg 1,8-cineole; single determination; values given with (<x) are approximations
Report as a plain number; the unit µg/kg is understood.

Record excerpt, results attached:
- Compound: "CC1(C)OC2(CO)CCC1CC2 [7-hydroxy-1,8-cineole]"
  Reading: 1.14
- Compound: "CC1(C)OC2(C)CCC1C1OC12 (stereo not drawn) [a2,3-epoxy-1,8-cineole, α2,3-epoxy-1,8-cineole]"
  Reading: 7.65
- Compound: "CC12CCC(C(=O)C1)C(C)(C)O2 (centres unmarked) [3-oxo-1,8-cineole]"
  Reading: 3.32
- Compound: "CC1(C)OC2(C)CCC1CC2O (stereo not drawn) [a2-hydroxy-1,8-cineole, α2-hydroxy-1,8-cineole]"
  Reading: 176.30

Would you kindly look at the next entry?
Task: Fill in the blank: the reported Absolute concentration in human milk of CC12CCC(O)(CC1)C(C)(C)O2 [4-hydroxy-1,8-cineole] is ____.
Output: 6.35

* * *

Test: Quantification of 1,8-cineole metabolites in human milk (SAFE, GC-MS, internal standard and matrix calibration) after oral intake of 100 mg 1,8-cineole
Type: in vivo
Details: sample H (odour yes); oral 100 mg 1,8-cineole; single determination; values given with (<x) are approximations
Quantity Kind: Absolute concentration in human milk (µg/kg)
Report as a plain number; the unit µg/kg is understood.

Record excerpt, results attached:
- Molecule: "CC1(C)OC2(C)CCC1CC2O (stereo not drawn) [a2-hydroxy-1,8-cineole, α2-hydroxy-1,8-cineole]"
  Reading: 206.09
- Molecule: "CC12CCC(O)(CC1)C(C)(C)O2 [4-hydroxy-1,8-cineole]"
  Reading: 5.66
- Molecule: "CC1(C)OC2(C)CCC1CC2O (stereo not drawn) [b2-hydroxy-1,8-cineole, β2-hydroxy-1,8-cineole]"
  Reading: 7.90

Would you kindly look at the next entry?
Task: Fill in the blank: the reported Absolute concentration in human milk of CC12C=CC(CC1)C(C)(C)O2 (stereo not shown) [2,3-dehydro-1,8-cineole, 2,3-Dehydro-1,8-cineole] is ____.
Output: 37.69
